Experiment: Average particle size of the LNP encapsulating nucleic acid (Zetasizer Nano ZS)
Assay type: physicochemical
Details: LNP encapsulating siRNA 2 (Table 13)
Property: Particle size (nm)

INSERT INTO results (compound, property, reported) VALUES
  ('CCCCCC(CCCCC)CCOC(=O)CCCCCCCC(CCCCCCCC(=O)OCCC(CCCCC)CCCCC)OC(=O)COCCN1CCN(C)CC1 [Compound I-70]', 'Particle size (nm)', '80.0 nm'),
  ('CCCCCC(CCCCC)CCOC(=O)CCCCCCCC(CCCCCCCC(=O)OCCC(CCCCC)CCCCC)OC(=O)COC1CC2(C1)CN(C)C2 [Compound I-87]', 'Particle size (nm)', '71.8 nm'),
  ('CCCCCCCCCC(CCCCCCCCC(=O)OCC(CCCC)CCCCCC)OC(=O)C1CCN(C)CC1 (stereo not drawn) [YS-119, reference compound]', 'Particle size (nm)', '75.3 nm'),
  ('CCCCCC(CCCCC)CCOC(=O)CCCCCCCC(CCCCCCCC(=O)OCCC(CCCCC)CCCCC)OC(=O)COC1C[C@@H]2CC3C[C@H](C1)N32 (stereo partly drawn) [II-9]', 'Particle size (nm)', '75.6 nm'),
  ('CCCCCC(CCCCC)CCOC(=O)CCCCCCCC(CCCCCCCC(=O)OCCC(CCCCC)CCCCC)OC(=O)COC1CCN(C)C1 (stereo not drawn) [Compound I-60]', 'Particle size (nm)', '76.2 nm'),
  ('CCCCCC(CCCCC)CCOC(=O)CCCCCCCC(CCCCCCCC(=O)OCCC(CCCCC)CCCCC)OC(=O)COC1CCN(CCCCO)CC1 [Compound I-69]', 'Particle size (nm)', '74.0 nm');

* * *

Assay: Encapsulation rate of the LNP encapsulating nucleic acid (Quant-iT RiboGreen RNA Assay Kit)
Type: physicochemical
Settings: LNP encapsulating siRNA 2 (Table 12)
Property: Encapsulation rate (%)

INSERT INTO assay_data (compound, property, reported) VALUES
  ('CCCCCCC(CCCC)COC(=O)CCCCCCCC(CCCCCCCC(=O)OCC(CCCC)CCCCCC)COC(=O)C1(COCCN(C)C)CC1 (stereo not drawn) [Compound I-3]', 'Encapsulation rate (%)', 95.2),
  ('CCCCCCCCCC(CCCCCCCCC(=O)OCC(CCCC)CCCCCC)OC(=O)COC(C)CN(C)C (stereo not drawn) [Compound I-54]', 'Encapsulation rate (%)', 95.8),
  ('CCCCCCCCCC(CCCCCCCCC(=O)OCC(CCCC)CCCCCC)OC(=O)COCCCN(C)C (stereo not drawn) [Compound I-28]', 'Encapsulation rate (%)', 96.7),
  ('CCCCCC(CCCCC)CCOC(=O)CCCCCCCC(CCCCCCCC(=O)OCCC(CCCCC)CCCCC)COC(=O)C(C)OCCN(C)C (stereo not drawn) [Compound I-39]', 'Encapsulation rate (%)', 96.2),
  ('CCCCCC(CCCCC)CCOC(=O)CCCCCCCC(CCCCCCCC(=O)OCCC(CCCCC)CCCCC)OC(=O)COC(C)CN(C)C (stereo not drawn) [Compound I-48]', 'Encapsulation rate (%)', 96.3),
  ('CCCCCC(CCCCC)CCOC(=O)CCCCCCCC(CCCCCCCC(=O)OCCC(CCCCC)CCCCC)COC(=O)CSC1CCN(C)CC1 [Compound I-38]', 'Encapsulation rate (%)', 97.4),
  ('CCCCCCC(CCCC)COC(=O)CCCCCCCC(CCCCCCCC(=O)OCC(CCCC)CCCCCC)OC(=O)COC1CCN(C)CC1 (stereo not drawn) [Compound I-16]', 'Encapsulation rate (%)', 97.2),
  ('CCCCCCC(CCCCCC)CCOC(=O)CCCCCCCC(CCCCCCCC(=O)OCCC(CCCCCC)CCCCCC)OC(=O)CSC1CCN(C)CC1 [Compound I-44]', 'Encapsulation rate (%)', 96.7),
  ('CCCCCC(CCCCC)CCOC(=O)CCCCCCCC(CCCCCCCC(=O)OCCC(CCCCC)CCCCC)OC(=O)CSC1CCN(C)CC1 [Compound I-8]', 'Encapsulation rate (%)', 96.5);

* * *

# key: entry, value: Particle size (nm)
Experiment: Average particle size of the LNP encapsulating nucleic acid (Zetasizer Nano ZS)
Format: physicochemical
Conditions: LNP encapsulating siRNA 2 (Table 12)
Property: Particle size (nm)

INSERT INTO assay_data (compound, reported) VALUES
  ('CCCCCCCCCC(CCCCCCCCC(=O)OCC(CCCC)CCCCCC)OC(=O)C1CCN(C)CC1 (stereo not drawn) [YS-119, reference compound]', 68.5),
  ('CCCCCCC(CCCCCC)OC(=O)CCCCCCCC(CCCCCCCC(=O)OC(CCCCCC)CCCCCC)OC(=O)COC1CCN(C)CC1', 80.4),
  ('CCCCCC(CCCCC)CCOC(=O)CCCCCCCC(CCCCCCCC(=O)OCCC(CCCCC)CCCCC)OC(=O)COC(C)CN(C)C (stereo not drawn)', 93.9),
  ('CCCCCCC(CCCCCC)CCOC(=O)CCCCCCCC(CCCCCCCC(=O)OCCC(CCCCCC)CCCCCC)OC(=O)CSC1CCN(C)CC1', 78.8),
  ('CCCCCCC(CCCCCC)COC(=O)CCCCCCCC(CCCCCCCC(=O)OCC(CCCCCC)CCCCCC)OC(=O)CSC1CCN(C)CC1', 80.2),
  ('CCCCCCC(CCCC)COC(=O)CCCCCCCC(CCCCCCCC(=O)OCC(CCCC)CCCCCC)COC(=O)C1(COCCN(C)C)CC1 (stereo not drawn)', 80.1),
  ('CCCCCCC(CCCC)COC(=O)CCCCCCCC(CCCCCCCC(=O)OCC(CCCC)CCCCCC)OC(=O)COC1CCN(C)CC1 (stereo not drawn)', 90.8),
  ('CCCCCCCCCC(CCCCCCCCC(=O)OCC(CCCC)CCCCCC)OC(=O)COC(C)CN(C)C (stereo not drawn)', 83.1),
  ('CCCCCCCCCC(CCCCCCCCC(=O)OCC(CCCC)CCCCCC)OC(=O)COCCCN(C)C (stereo not drawn)', 84.7),
  ('CCCCCC(CCCCC)CCOC(=O)CCCCCCCC(CCCCCCCC(=O)OCCC(CCCCC)CCCCC)OC(=O)CSC1CCN(C)CC1', 81.4),
  ('CCCCCC(CCCCC)CCOC(=O)CCCCCCCC(CCCCCCCC(=O)OCCC(CCCCC)CCCCC)COC(=O)CSC1CCN(C)CC1', 81.6),
  ('CCCCCC(CCCCC)CCOC(=O)CCCCCCCC(CCCCCCCC(=O)OCCC(CCCCC)CCCCC)COC(=O)C(C)OCCN(C)C (stereo not drawn)', 82.3);

* * *

Assay: Average particle size of the LNP encapsulating nucleic acid (Zetasizer Nano ZS)
Format: physicochemical
Conditions: LNP encapsulating mRNA 1 (Table 14)
Property: Particle size (nm)

INSERT INTO assay_data (compound, reported) VALUES
  ('CCCCCC/C=C\COC(=O)CCCCCCCC(CCCCCCCC(=O)OC/C=C\CCCCCC)OC(=O)CCCN(C)C [ALN-319, reference compound]', '110.1 nm'),
  ('CCCCCCC(CCCCCC)OC(=O)CCCCCCCC(CCCCCCCC(=O)OC(CCCCCC)CCCCCC)OC(=O)COC1CCN(C)CC1', '91.0 nm'),
  ('CCCCCC(CCCCC)CCOC(=O)CCCCCCCC(CCCCCCCC(=O)OCCC(CCCCC)CCCCC)OC(=O)C(C)OCCN(C)C (stereo not shown)', '107.1 nm'),
  ('CCCCCC(CCCCC)CCOC(=O)CCCCCCCC(CCCCCCCC(=O)OCCC(CCCCC)CCCCC)COC(=O)C(C)OCCN(C)C (stereo not shown)', '127.1 nm');

* * *

Test: Encapsulation rate of the LNP encapsulating nucleic acid (Quant-iT RiboGreen RNA Assay Kit)
Format: physicochemical
Conditions: LNP encapsulating siRNA 1 (Table 11)
Property: Encapsulation rate (%)

INSERT INTO results (compound, measurement_units, reported) VALUES
  ('CCCCCCCCCC(CCCCCCCCC(=O)OCC(CCCC)CCCCCC)OC(=O)C1CCN(C)CC1 (stereo not drawn) [YS-119, reference compound]', '%', 89.1),
  ('CCCCCC(CCCCC)CCOC(=O)CCCCCCCC(CCCCCCCC(=O)OCCC(CCCCC)CCCCC)OC(=O)CSC1CCN(C)CC1', '%', 95.6),
  ('CCCCCCC(CCCCCC)CCOC(=O)CCCCCCCC(CCCCCCCC(=O)OCCC(CCCCCC)CCCCCC)OC(=O)CSC1CCN(C)CC1', '%', 95.5),
  ('CCCCCC/C=C\COC(=O)CCCCCCCC(CCCCCCCC(=O)OC/C=C\CCCCCC)OC(=O)CCCN(C)C [ALN-319, reference compound]', '%', 88.3),
  ('CCCCCCC(CCCC)COC(=O)CCCCCCCC(CCCCCCCC(=O)OCC(CCCC)CCCCCC)OC(=O)COC1CCN(C)CC1 (stereo not drawn)', '%', 97.2),
  ('CCCCCC(CCCCC)CCOC(=O)CCCCCCCC(CCCCCCCC(=O)OCCC(CCCCC)CCCCC)COC(=O)CSC1CCN(C)CC1', '%', 97.2),
  ('CCCCCC(CCCCC)CCOC(=O)CCCCCCCC(CCCCCCCC(=O)OCCC(CCCCC)CCCCC)OC(=O)COC(C)CN(C)C (stereo not drawn)', '%', 95.2),
  ('CCCCCC(CCCCC)CCOC(=O)CCCCCCCC(CCCCCCCC(=O)OCCC(CCCCC)CCCCC)COC(=O)C(C)OCCN(C)C (stereo not drawn)', '%', 96.0),
  ('CCCCCCCCCC(CCCCCCCCC(=O)OCC(CCCC)CCCCCC)OC(=O)COCCCN(C)C (stereo not drawn)', '%', 97.8);
